# System: HCT-15 colon
# Assay comment: NCI tumour cell line growth inhibition, 48 h; in the data active = GI50 below about 0.43 µM; inactive = the rest
Form entry, call: pick from active, inactive

Query string: For this compound, state the assay outcome: CC1(C)NCCC[C@]2(C)[C@H]3CC[C@@H]4[C@H]5[C@H](C(=O)/C=C/c6ccccn6)CC[C@]5(CO)CC[C@@]4(C)[C@]3(C)CC[C@@H]12
Result string: inactive

Query string: Recorded test outcome, item Cc1cc2c(C(N)=O)c(N)n(-c3c(C)ccc(O)c3C)c2nc1C
Result string: inactive

Query string: Outcome logged for N#Cc1c(N)nc(N2CCOCC2)c(C#N)c1-c1ccccn1 in this assay:
Result string: inactive

Query string: For this compound, state the assay outcome: CCCCCCCCCNC(=O)/C=C/c1ccc(O)c(O)c1
Result string: inactive

Query string: Entry COC(=O)c1cc2c3ccccc3[nH]c2c2sccc12 : call = ?
Result string: inactive

Query string: For CC(=[N-])N1CCC[C@@H](Nc2c3ccccc3nc3ccccc23)C1.[Cl][Pt].[NH-]CCC[NH-] , what call appears in the results of this test?
Result string: inactive

Query string: # outcome recorded in this test, key = CCC(=O)Nc1ccc(C)c(-c2ccc(C(=O)NCC3CC3)cc2)c1
Result string: inactive

Query string: What did the test return for OCCNc1nc(Nc2ccc(Cl)c(Cl)c2)nc2ccccc12 ?
Result string: inactive

Query string: Identify the outcome logged in this assay for the compound shown: CN1CCN(c2ccc(NC(=O)c3cncnc3Nc3ccc(OCc4ccccn4)c(Cl)c3)cc2)CC1
Result string: inactive

Query string: What classification did CCOC(=O)C#Cc1c(C(=O)OCC)nnn1Cc1ccc([N+](=O)[O-])cc1 end up with in this test?
Result string: inactive

Query string: What did this assay record as the result for CC(=O)[CH-]C(=O)c1ccccc1.CC(=O)[CH-]C(=O)c1ccccc1.Cc1cc([O-])ccc1Cl.Cc1cc([O-])ccc1Cl.[Ti+4] ?
Result string: inactive

Query string: Would you mind telling me which call this test gave COc1cc(-c2csc(NC(=O)Nc3ccc(C(F)(F)F)cc3)n2)cc(OC)c1OC ?
Result string: inactive

Query string: Outcome? CCc1ccc(C(=Nc2ccc(N(C)C(=O)CN3CCN(C)CC3)cc2)c2c(O)[nH]c3ccc(C(=O)OC)cc23)cc1
Result string: active

Query string: Hey, what did the test say about O=C(O)c1c(=O)cccc2ssc12 ?
Result string: inactive

Query string: Answer briefly: the call reported for Cc1cc(N2CCOCC2)nc(N(CCCNc2ccnc3cc(Cl)ccc23)Cc2ccco2)n1 in this assay.
Result string: inactive

Query string: Recorded test call requested for CO/N=C(\COc1ccc2oc(-c3ccccc3)cc(=O)c2c1)c1ccc(OC)cc1
Result string: inactive

Query string: Test call, this compound: Cc1ccc(C(=O)/C(=C\c2ccc([N+](=O)[O-])cc2)S(=O)Cc2ccc(Cl)cc2)cc1 (stereo not given)
Result string: inactive

Query string: So what was the verdict on CCOC(=O)c1cc(-c2ccccc2)[nH]c1N/N=C/c1ccc(Cl)cc1 in this test?
Result string: inactive

Query string: // outcome(item) with item = COC(=O)C12OCC34C(CC5C(C)C6=CC(=O)OC6=CC5(C)C3C(O)C1O)OC(=O)C(O)C24 (stereo not given)
Result string: inactive

Query string: Kindly provide the recorded test outcome for the following compound: O=C(Nc1cccc(Cl)c1)c1cccc(NC2=C(Cl)C(=O)N(Cc3ccccc3)C2=O)c1
Result string: inactive
